Exercise: state measured EC50 for each of the compounds provided.
biological target: human RXFP1 (Homo sapiens); assay: hRXFP1 HEK293 cAMP assay (HTRF); conditions: HEK293 cells stably expressing human RXFP1; 30 min at rt; intracellular cAMP by HTRF
Sequence (Q9HBX9 whole entry): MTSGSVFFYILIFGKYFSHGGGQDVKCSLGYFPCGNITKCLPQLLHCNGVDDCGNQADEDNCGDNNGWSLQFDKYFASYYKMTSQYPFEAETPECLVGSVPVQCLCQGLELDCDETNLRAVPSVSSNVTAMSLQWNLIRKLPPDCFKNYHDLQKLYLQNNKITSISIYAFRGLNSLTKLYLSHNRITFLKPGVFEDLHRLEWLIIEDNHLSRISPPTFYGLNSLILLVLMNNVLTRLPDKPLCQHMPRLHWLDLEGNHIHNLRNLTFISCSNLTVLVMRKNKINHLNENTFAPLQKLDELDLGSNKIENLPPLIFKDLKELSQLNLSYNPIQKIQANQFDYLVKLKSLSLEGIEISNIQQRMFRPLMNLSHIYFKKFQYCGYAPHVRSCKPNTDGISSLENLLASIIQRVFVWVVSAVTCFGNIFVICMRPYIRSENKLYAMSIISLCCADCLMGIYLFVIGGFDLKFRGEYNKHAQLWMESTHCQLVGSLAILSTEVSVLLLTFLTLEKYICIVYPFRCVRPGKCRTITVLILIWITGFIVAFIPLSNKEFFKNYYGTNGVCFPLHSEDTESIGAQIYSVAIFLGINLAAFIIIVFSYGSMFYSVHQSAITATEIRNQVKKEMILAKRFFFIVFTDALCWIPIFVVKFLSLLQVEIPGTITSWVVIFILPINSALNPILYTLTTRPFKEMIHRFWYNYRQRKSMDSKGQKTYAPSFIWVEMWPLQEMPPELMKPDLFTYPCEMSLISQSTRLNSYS
Give just the number in µM; leave the unit off.

What does the data say about its EC50? Entry: COc1ccc(C2CC2C(=O)N2CC(O)C2)cc1C(=O)Nc1c(C(=O)Nc2ccc(F)c(C(F)(F)F)c2)sc2cc(C(F)(F)F)ccc12 (stereo not shown) 0.292

State the recorded EC50 for this entry: COc1ccc(C2CCN(CCS(C)(=O)=O)C2)cc1C(=O)Nc1c(C(=O)Nc2ccc(F)c(C(F)(F)F)c2)sc2cc(C(F)(F)F)ccc12 (single isomer, unassigned) [Example 153] 0.314

Look at this compound and give its reported EC50. COc1ccc(N2CCCC(NCC(N)=O)C2)cc1C(=O)Nc1c(C(=O)Nc2ccc(F)c(C(F)(F)F)c2)sc2cc(C(F)(F)F)ccc12 (stereo in doubt) [Example 210] 1.93

Look up EC50 for this compound: COc1ccc(C2CC2C(=O)O)cc1C(=O)Nc1c(C(=O)Nc2ccc(F)c(C(F)(F)F)c2)sc2cc(C(F)(F)F)ccc12 (single isomer, unassigned) [Example 48] 0.0584

Please give the measured EC50 for this compound: COc1ccc(C2=NOC3(CCN(C(=O)C(C)(C)O)C3)C2)cc1C(=O)Nc1c(C(=O)Nc2ccc(F)c(C(F)(F)F)c2)sc2cc(C(F)(F)F)ccc12 (stereo not shown) 0.582

Requested read-out: EC50. Entry: COc1ccc(N2CCCC(C(=O)NCC(C)(C)O)C2)cc1C(=O)Nc1c(C(=O)Nc2ccc(F)c(C(F)(F)F)c2)sc2cc(C(F)(F)F)ccc12 (single isomer, unassigned) [Example 7] 0.661

# get_value(readout='EC50', item= COc1ncc(N2CCCC(CO)C2)cc1C(=O)Nc1c(C(=O)Nc2ccc(F)c(C(F)(F)F)c2)sc2cc(C(F)(F)F)ccc12 (stereo not shown) ) 2.54

Param item = COc1ccc(-c2cccc(C(NC(=O)C3CCOCC3)C(=O)O)c2)cc1C(=O)Nc1c(C(=O)Nc2ccc(F)c(C(F)(F)F)c2)sc2cc(C(F)(F)F)ccc12 (single isomer, unassigned) ; retrieve measured EC50. 0.0038

May I ask what EC50 has been recorded for COc1ccc(C(=O)N2CC(C)(C)C2)cc1C(=O)Nc1c(C(=O)Nc2ccc(F)c(C(F)(F)F)c2)sc2cc(Cl)ncc12 ? 3.3

What does the record list as EC50 for COc1ccc(C#CCO)cc1C(=O)Nc1c(C(=O)Nc2ccc(F)c(C(F)(F)F)c2)sc2cc(C3CC3)ncc12 ? 1.01

Consider the compound shown here: COc1ccc(C2CCCN(CC(N)=O)CC2)cc1C(=O)Nc1c(C(=O)Nc2ccc(F)c(C(F)(F)F)c2)sc2cc(C(F)(F)F)ccc12 (single isomer, unassigned) [Example 73] What is its recorded EC50? 1.04

Name the recorded EC50 for COc1ccc(C2=NOC3(CNC3)C2)cc1C(=O)Nc1c(C(=O)Nc2ccc(F)c(C(F)(F)F)c2)sc2cc(C(F)(F)F)ccc12 . 5

Recorded EC50 for COCCC(=O)N1CCC(c2ccc(OC)c(C(=O)Nc3c(C(=O)Nc4ccc(F)c(C(F)(F)F)c4)sc4cc(C(F)(F)F)ccc34)c2)C1 (stereo not shown) , please? 1.54

So what does the record say about EC50 for COc1ccc(-c2cc(C(NC(=O)C3CCOCC3)C(F)(F)F)ccc2F)cc1C(=O)Nc1c(C(=O)Nc2ccc(F)c(C(F)(F)F)c2)sc2cc(C(F)(F)F)ccc12 (single isomer, unassigned) [Example 20] ? 0.954

Any idea what its EC50 is? The compound is COc1ccc(C(=O)N2CCC3(CC2)COC3)cc1C(=O)Nc1c(C(=O)Nc2ccc(F)c(C(F)(F)F)c2)sc2cc(C(F)(F)F)ccc12 1.61

Data request, read-out EC50, for COc1ccc(CCCO)cc1C(=O)Nc1c(C(=O)NC2CCCC(C(F)(F)F)C2)sc2cc(C(F)(F)F)ccc12 (single isomer, unassigned) 3.74

Can you share its EC50? I mean this compound: COc1ccc(N2CCCC(C(=O)NC3COC3)C2)cc1C(=O)Nc1c(C(=O)Nc2ccc(F)c(C(F)(F)F)c2)sc2cc(C(F)(F)F)ccc12 (single isomer, unassigned) [Example 188] 0.772

Quick one: EC50 of COc1ccc(C2CC2C(=O)N2CC(C(C)(C)O)C2)cc1C(=O)Nc1c(C(=O)Nc2ccc(F)c(C(F)(F)F)c2)sc2cc(C(F)(F)F)ccc12 (stereo not shown) [Example 165] ? 3.05

Which EC50 is listed for COc1ccc(C2=NOC3COCC23)cc1C(=O)Nc1c(C(=O)Nc2ccc(F)c(C(F)(F)F)c2)sc2cc(C(F)(F)F)ccc12 (single isomer, unassigned) ? 0.498

Give the measured EC50 of COc1ccc(-c2cc(CNCC(C)C)ccc2F)cc1C(=O)Nc1c(C(=O)Nc2ccc(F)c(C(F)(F)F)c2)sc2cc(C(F)(F)F)ccc12 . 1.01

Fill blank: measured EC50 of the compound COc1ccc(C(=O)N(C)C)cc1C(=O)Nc1c(C(=O)Nc2ccc(F)c(C(F)(F)F)c2)sc2cc(C(F)(F)F)ccc12 is ____. 2.53

Please report the recorded EC50 for COc1ccc(C2CCN(C3COC3)C2)cc1C(=O)Nc1c(C(=O)Nc2ccc(F)c(C(F)(F)F)c2)sc2cc(C(F)(F)F)ccc12 (stereo not shown) [Example 142] . 0.619
